Source listed as patent US8287850B2.

I'd be grateful if you could share measured Proliferation of mouse NFS-60 cells, induced by G-CSF variants for these entries.
tested on: mouse NFS-60 cells; experiment: Mitogenicity of G-CSF variants for mouse NFS-60 cells (Example 6.3); format: cell-based; details: Conc. 10 pg/ml (G-CSF content), 3 days
In your answer, state the number alone without any accompanying words.

Ask | Could you share which Proliferation of mouse NFS-60 cells, induced by G-CSF variants value was measured for Neupogen: non-modified Neupogen (Amgen), rhG-CSF filgrastim, non-glycosylated, E. coli (protein, UniProt P09919 31-207, looked up, filgrastim, N-terminal Met, non-modified Neupogen (Amgen), rhG-CSF filgrastim, non-glycosylated, E. coli) Granulocyte …: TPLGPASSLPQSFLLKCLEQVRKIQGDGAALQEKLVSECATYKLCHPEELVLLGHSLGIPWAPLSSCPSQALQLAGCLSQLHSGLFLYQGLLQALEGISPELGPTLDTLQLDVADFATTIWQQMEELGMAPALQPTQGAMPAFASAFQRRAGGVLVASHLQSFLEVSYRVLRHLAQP ?
Reply | 1.69

Ask | Could you share which Proliferation of mouse NFS-60 cells, induced by G-CSF variants value was measured for HES-GCSF 50/0.7: hG-CSF conjugated with AldehydoHES50/0.7 of example 6.1(j), prepared in example 6.2(b) (conjugate, UniProt P09919 31-207, looked up, hydroxyethyl starch conjugate HES50/0.7) Granulocyte …: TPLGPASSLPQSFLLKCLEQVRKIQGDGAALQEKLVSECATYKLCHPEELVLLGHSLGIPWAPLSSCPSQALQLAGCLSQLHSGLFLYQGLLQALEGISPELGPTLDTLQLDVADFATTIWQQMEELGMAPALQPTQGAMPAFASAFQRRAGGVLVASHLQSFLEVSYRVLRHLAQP ?
Reply | 0.97

Ask | Could you share which Proliferation of mouse NFS-60 cells, induced by G-CSF variants value was measured for HES-GCSF 10/0.4: hG-CSF conjugated with AldehydoHES10/0.4 of example 6.1(b), prepared in example 6.2(b) (conjugate, UniProt P09919 31-207, looked up, hydroxyethyl starch conjugate HES10/0.4) Granulocyte …: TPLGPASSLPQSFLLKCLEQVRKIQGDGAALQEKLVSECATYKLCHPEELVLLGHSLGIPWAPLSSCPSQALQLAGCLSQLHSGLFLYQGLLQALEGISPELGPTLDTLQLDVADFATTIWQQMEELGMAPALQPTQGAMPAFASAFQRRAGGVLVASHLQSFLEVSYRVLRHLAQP ?
Reply | 1.40

Ask | Could you share which Proliferation of mouse NFS-60 cells, induced by G-CSF variants value was measured for Neulasta: non-modified Neulasta (Amgen) (conjugate, UniProt P09919 31-207, looked up, pegfilgrastim; 20 kDa PEG) Granulocyte …: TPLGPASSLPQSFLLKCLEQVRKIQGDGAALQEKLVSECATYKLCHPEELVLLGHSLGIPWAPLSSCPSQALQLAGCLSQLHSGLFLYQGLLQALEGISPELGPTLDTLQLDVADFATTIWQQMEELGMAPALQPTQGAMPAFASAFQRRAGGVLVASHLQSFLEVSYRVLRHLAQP ?
Reply | 1.12

Ask | Could you share which Proliferation of mouse NFS-60 cells, induced by G-CSF variants value was measured for HES-GCSF 10/0.7: hG-CSF conjugated with AldehydoHES10/0.7 of example 6.1(d), prepared in example 6.2(b) (conjugate, UniProt P09919 31-207, looked up, hydroxyethyl starch conjugate HES10/0.7) Granulocyte …: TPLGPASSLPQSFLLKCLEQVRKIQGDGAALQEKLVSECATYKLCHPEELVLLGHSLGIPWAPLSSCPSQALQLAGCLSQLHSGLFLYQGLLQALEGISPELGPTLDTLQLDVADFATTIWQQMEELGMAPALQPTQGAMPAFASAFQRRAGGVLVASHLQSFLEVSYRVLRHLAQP ?
Reply | 1.44

Ask | Could you share which Proliferation of mouse NFS-60 cells, induced by G-CSF variants value was measured for HES-GCSF 30/0.4: hG-CSF conjugated with AldehydoHES30/0.4 of example 6.1(f), prepared in example 6.2(d) (conjugate, UniProt P09919 31-207, looked up, hydroxyethyl starch conjugate HES30/0.4) Granulocyte …: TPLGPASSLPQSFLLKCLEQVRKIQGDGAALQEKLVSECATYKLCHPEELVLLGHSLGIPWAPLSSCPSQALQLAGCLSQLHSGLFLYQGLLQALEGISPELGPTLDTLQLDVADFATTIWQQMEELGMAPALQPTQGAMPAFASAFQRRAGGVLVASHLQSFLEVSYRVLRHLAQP ?
Reply | 1.62

Ask | Could you share which Proliferation of mouse NFS-60 cells, induced by G-CSF variants value was measured for Mock-incubation: reaction control: hG-CSF incubated with 197 mg/ml non-functionalized HES50/0.7 (MW 47,000 D, DS 0.76) (protein, UniProt P09919 31-207, looked up, mixed with non-functionalized HES) Granulocyte …: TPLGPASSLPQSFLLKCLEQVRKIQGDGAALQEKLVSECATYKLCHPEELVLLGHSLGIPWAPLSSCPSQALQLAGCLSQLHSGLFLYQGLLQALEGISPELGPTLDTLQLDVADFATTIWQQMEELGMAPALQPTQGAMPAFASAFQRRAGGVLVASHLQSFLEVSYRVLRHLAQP ?
Reply | 1.91
